Values were extracted from ChEMBL document CHEMBL4052831.

Target: Tyrosine-protein kinase Lyn (Homo sapiens)
Sequence (P07948 whole entry): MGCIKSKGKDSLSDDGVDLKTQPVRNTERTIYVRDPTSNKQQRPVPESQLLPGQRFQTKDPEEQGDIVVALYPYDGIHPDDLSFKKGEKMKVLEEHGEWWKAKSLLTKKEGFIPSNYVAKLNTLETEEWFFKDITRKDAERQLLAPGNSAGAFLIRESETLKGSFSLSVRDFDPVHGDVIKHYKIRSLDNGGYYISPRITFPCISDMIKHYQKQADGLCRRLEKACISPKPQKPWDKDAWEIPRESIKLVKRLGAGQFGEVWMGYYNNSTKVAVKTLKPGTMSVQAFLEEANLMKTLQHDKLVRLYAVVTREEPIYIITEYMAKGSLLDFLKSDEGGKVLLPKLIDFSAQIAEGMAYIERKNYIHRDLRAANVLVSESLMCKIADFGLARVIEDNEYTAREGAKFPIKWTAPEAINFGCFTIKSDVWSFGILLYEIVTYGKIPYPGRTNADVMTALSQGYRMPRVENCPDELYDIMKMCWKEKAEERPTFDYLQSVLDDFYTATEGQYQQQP
pIC50: −log10 of the molar value.
Experimental endpoint: pIC50

INSERT INTO assay_data (smiles_representation, experimental_endpoint, result) VALUES
  ('CC(=O)N1Cc2ncnc(Oc3ccc4c(ccn4C(=O)Nc4cc(C5CC5)on4)c3)c2C[C@@H]1C', 'pIC50', '> 6.30');

----------
Test: AUC (0 to last) in cynomolgus monkey plasma administered 0.5% suspension using 30 uL topical drop to both eyes as single dose by LC-MS/MS analysis
Format: ADME, Macaca fascicularis
Set-up: dose 30 uL, route ophthalmic, time 0 - last
Settings: topical or ocular, 30 uL of 0.5% suspension per eye
Experimental endpoint: AUC(0-t)

INSERT INTO assay_data (smiles_representation, result) VALUES
  ('CC(=O)N1Cc2ncnc(Oc3ccc4c(ccn4C(=O)Nc4cc(C5CC5)on4)c3)c2C[C@@H]1C', '1.07 µM·h');

----------
Target: Platelet-derived growth factor receptor alpha (Homo sapiens)
Sequence (P16234 whole entry): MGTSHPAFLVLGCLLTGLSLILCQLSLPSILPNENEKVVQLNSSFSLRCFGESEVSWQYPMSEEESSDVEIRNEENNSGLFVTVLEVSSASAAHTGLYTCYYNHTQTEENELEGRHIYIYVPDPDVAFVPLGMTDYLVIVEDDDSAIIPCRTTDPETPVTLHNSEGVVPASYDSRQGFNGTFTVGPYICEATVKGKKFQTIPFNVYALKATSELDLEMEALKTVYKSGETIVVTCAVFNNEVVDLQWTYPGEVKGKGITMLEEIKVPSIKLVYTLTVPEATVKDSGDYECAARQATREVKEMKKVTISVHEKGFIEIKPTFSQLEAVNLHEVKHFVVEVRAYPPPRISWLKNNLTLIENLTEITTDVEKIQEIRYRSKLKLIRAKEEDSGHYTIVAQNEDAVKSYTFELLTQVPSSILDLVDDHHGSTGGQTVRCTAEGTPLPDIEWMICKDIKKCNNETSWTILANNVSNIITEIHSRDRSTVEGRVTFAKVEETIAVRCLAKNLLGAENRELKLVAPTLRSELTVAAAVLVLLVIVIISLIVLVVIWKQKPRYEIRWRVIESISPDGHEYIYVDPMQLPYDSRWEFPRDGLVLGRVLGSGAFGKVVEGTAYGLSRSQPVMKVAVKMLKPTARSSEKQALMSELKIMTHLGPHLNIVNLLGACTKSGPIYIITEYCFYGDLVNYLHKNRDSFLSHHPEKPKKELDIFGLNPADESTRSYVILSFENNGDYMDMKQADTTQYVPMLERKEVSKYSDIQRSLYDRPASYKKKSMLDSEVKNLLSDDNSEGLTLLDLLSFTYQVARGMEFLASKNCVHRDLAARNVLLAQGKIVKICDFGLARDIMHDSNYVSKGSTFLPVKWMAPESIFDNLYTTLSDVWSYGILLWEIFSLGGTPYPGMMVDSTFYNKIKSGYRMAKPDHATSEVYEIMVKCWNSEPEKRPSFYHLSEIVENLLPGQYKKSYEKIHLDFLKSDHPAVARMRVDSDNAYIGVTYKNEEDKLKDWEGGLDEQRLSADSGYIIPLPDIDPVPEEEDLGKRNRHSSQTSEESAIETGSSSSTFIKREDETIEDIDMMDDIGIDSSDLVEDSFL
pIC50: −log10 of the molar value.
Experimental endpoint: pIC50

INSERT INTO assay_data (smiles_representation, result) VALUES
  ('CC(=O)N1Cc2ncnc(Oc3ccc4c(ccn4C(=O)Nc4cc(C5CC5)on4)c3)c2C[C@@H]1C', '> 6.30');

----------
Assay: Cmax in posterior eye cup of Brown Norway rat administered 0.3% suspension using 4 uL topical drop to both eyes every 3 hrs for 9 hrs over 10 days and single drop to each eye on day 11 by LC-MS/MS analysis
Assay type: ADME
Settings: topical or ocular, 4 uL of 0.3% suspension per eye
Experimental endpoint: Cmax (µM)

INSERT INTO results (smiles_representation, unit, number) VALUES
  ('CNCc1cc(Oc2ccc3c(ccn3C(=O)Nc3cc(C(F)(F)F)n(C)n3)c2)ncn1', 'µM', 31.8),
  ('CC(=O)N1Cc2ncnc(Oc3ccc4c(ccn4C(=O)Nc4cc(C5CC5)on4)c3)c2C[C@@H]1C', 'µM', 4.73);

----------
Assay: Tmax in cynomolgus monkey plasma administered 0.5% suspension using 30 uL topical drop to both eyes every 3 hrs for 9 hrs over 5 days and single drop to each eye on day 6 by LC-MS/MS analysis
Format: ADME, Macaca fascicularis
Conditions: topical or ocular, 30 uL of 0.5% suspension per eye
Experimental endpoint: Tmax (h)

INSERT INTO measurements (smiles_representation, experimental_endpoint, number) VALUES
  ('CC(=O)N1Cc2ncnc(Oc3ccc4c(ccn4C(=O)Nc4cc(C5CC5)on4)c3)c2C[C@@H]1C', 'Tmax', 3);

----------
Assay: Cmax in cynomolgus monkey plasma administered 0.5% suspension using 30 uL topical drop to both eyes every 3 hrs for 9 hrs over 5 days and single drop to each eye on day 6 by LC-MS/MS analysis
Assay type: ADME, Macaca fascicularis
Conditions: topical or ocular, 30 uL of 0.5% suspension per eye
Experimental endpoint: Cmax (nM)

INSERT INTO assay_data (smiles_representation, number) VALUES
  ('CC(=O)N1Cc2ncnc(Oc3ccc4c(ccn4C(=O)Nc4cc(C5CC5)on4)c3)c2C[C@@H]1C', 228);

----------
Assay: Intrinsic clearance in rat liver microsomes at 1 uM after 5 to 30 mins by LC-MS/MS analysis
Type: ADME, microsome
Conditions: read-out: CLH
Experimental endpoint: microsomal CLint at 1 µM (µL/min/mg)

INSERT INTO assay_data (smiles_representation, experimental_endpoint, unit, number) VALUES
  ('CNCc1cc(Oc2ccc3c(ccn3C(=O)Nc3cc(C4(C)CC4)on3)c2)ncn1', 'microsomal CLint at 1 µM', 'µL/min/mg', 91),
  ('CNCc1cc(Oc2ccc3c(ccn3C(=O)Nc3cc(C(F)(F)F)[nH]n3)c2)ncn1', 'microsomal CLint at 1 µM', 'µL/min/mg', 131),
  ('CNCc1cc(Oc2ccc3c(ccn3C(=O)Nc3cccc(C(F)(F)F)c3)c2)ncn1', 'microsomal CLint at 1 µM', 'µL/min/mg', 43),
  ('CNCc1cc(Oc2ccc3c(ccn3C(=O)Nc3cc(C(F)(F)F)n(C)n3)c2)ncn1', 'microsomal CLint at 1 µM', 'µL/min/mg', 156),
  ('CNCc1cc(Oc2ccc3c(ccn3C(=O)Nc3cc(C(C)C)on3)c2)ncn1', 'microsomal CLint at 1 µM', 'µL/min/mg', 114),
  ('CNCc1cc(Oc2ccc3c(ccn3C(=O)Nc3cc(C(C)C)[nH]n3)c2)ncn1', 'microsomal CLint at 1 µM', 'µL/min/mg', 52.3);
